Molecular target: α1A-ARS (Homo sapiens)
Sequence (P35348 1-466): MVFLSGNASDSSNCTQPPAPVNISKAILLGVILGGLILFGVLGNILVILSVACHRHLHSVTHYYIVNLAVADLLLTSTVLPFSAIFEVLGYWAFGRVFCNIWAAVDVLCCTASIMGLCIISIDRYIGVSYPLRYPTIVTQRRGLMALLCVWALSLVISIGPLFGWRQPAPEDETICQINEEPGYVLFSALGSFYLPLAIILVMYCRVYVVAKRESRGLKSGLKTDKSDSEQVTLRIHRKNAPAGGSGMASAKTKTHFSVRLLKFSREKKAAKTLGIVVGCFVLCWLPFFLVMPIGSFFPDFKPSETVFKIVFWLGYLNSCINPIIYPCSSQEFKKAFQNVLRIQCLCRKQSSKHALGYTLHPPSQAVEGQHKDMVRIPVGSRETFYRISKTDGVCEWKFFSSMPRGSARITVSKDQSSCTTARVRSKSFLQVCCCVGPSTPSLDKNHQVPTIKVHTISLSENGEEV
Test: Calcium flux assay (Calcium 6 dye) in cells expressing an α1-AR
Assay type: cell-based
Conditions: calcium flux, α1A-AR; mean of at least three experiments; read-out: Average PEC50
pEC50: −log10 of the molar value.
measure: pEC50

Ask: Which value of pEC50 has been reported for Cc1oc2cc(CC3=NCCN3)ccc2c1C [Compound 43] in the records?
Reply: 6.01 to 8.00

Ask: Requested read-out: pEC50. Entry: CCC(F)(F)c1cc(Cl)ccc1CC1=NCCN1 [Compound 121]
Reply: 6.01 to 8.00

Ask: What does the data say about its pEC50? Entry: FC(F)(F)c1ccc(CC2=NCCN2)c(N2CCOCC2)c1 [Compound 68]
Reply: < 6.00

Ask: For the compound shown here, Cc1c(CC2=NCCN2)cccc1-c1cccs1 [Compound 26] , give the reported pEC50.
Reply: 6.01 to 8.00

Ask: // lookup pEC50 for Cn1nccc1-c1cc(CC2=NCCN2)ccc1Cl [Compound 11]
Reply: < 6.00

Ask: So what's the measured pEC50 for this one? FC(F)(F)Oc1ccc(CC2=NCCN2)c(Cl)c1 [Compound 135]
Reply: 6.01 to 8.00

Ask: Recorded pEC50 of Clc1ccc(CC2=NCCN2)c(-n2cccc2)c1 [Compound 91] , please.
Reply: 6.01 to 8.00

Ask: Data request, read-out pEC50, for FC(F)Oc1cc(Cl)ccc1CC1=NCCN1 [Compound 114]
Reply: 6.01 to 8.00

Ask: I would be grateful if you could share the reported pEC50 for FC(F)(F)c1ccc(Cl)c(CC2=NCCN2)c1 [Compound 132] .
Reply: 6.01 to 8.00

Ask: Could you tell me which pEC50 is on file for Cc1c(CC2=NCCN2)ccc(Cl)c1-c1nccs1 [Compound 36] ?
Reply: < 6.00

Ask: Name the recorded pEC50 for Clc1ccc(CC2=NCCN2)c(-n2cccn2)c1 [Compound 21] .
Reply: 6.01 to 8.00
